# Tested on: HepG2 cells
# run-description: Measurement of cholesterol synthesis inhibitory ability (cholesterol content in cell lysates, Amplex red)
# Format: cell-based
# condition: 100 uM compound, 24 hours, HepG2; lower value = stronger cholesterol synthesis inhibition
measurement-kind: Cholesterol (100 uM) Aver.
Just the number, please, no unit attached.

Item Cl.N=C(N)NC(=Nc1ccc(-c2ccccc2)cc1)NCCc1cccs1 [Example 35] has what recorded Cholesterol (100 uM) Aver.?
28.27

I would be grateful if you could share the reported Cholesterol (100 uM) Aver. for COc1ccc(N=C(NCCc2cccs2)NC(=N)N)cc1.Cl [Example 30] .
73.64

Dear colleague, I am looking for the recorded Cholesterol (100 uM) Aver. of the following molecule: CC(C)N=C(NCCc1cccs1)NC(=N)N.Cl [Example 41]
87.73

Quick one: Cholesterol (100 uM) Aver. of Cl.N=C(N)NC(=NC1CCCCCC1)NCCc1cccs1 [Example 22] ?
69.8

Look at this molecule and give its reported Cholesterol (100 uM) Aver.. CCCCN=C(NCCc1cccs1)NC(=N)N.Cl [Example 26]
43.20

Which value of Cholesterol (100 uM) Aver. has been reported for Cl.N=C(N)NC(=Nc1ccc(Br)cc1)NCCc1cccs1 [Example 33] in the records?
24.52

Looking for the measured Cholesterol (100 uM) Aver. of COc1ccc(CN=C(NCCc2cccs2)NC(=N)N)cc1.Cl [Example 38] , can you help?
80.35

Recorded Cholesterol (100 uM) Aver. for CN=C(NCCc1cccs1)NC(=N)N.Cl [Example 12] , please?
69.94

Please give the measured Cholesterol (100 uM) Aver. for this molecule: Cl.N=C(N)NC(=Nc1ccccc1)NCCc1cccs1 [Example 20]
45.7

I would be grateful if you could share the reported Cholesterol (100 uM) Aver. for Cl.N=C(N)NC(=NCc1ccccc1)NCCc1cccs1 [Example 8] .
37.77

###

# System: HepG2 cells
# run-description: Measurement of gluconeogenesis inhibitory ability (14C-lactate, glucose formed in cells)
# Type: cell-based
# condition: 100 uM compound, 24 hours, HepG2; lower value = stronger gluconeogenesis inhibition
measurement-kind: Gluconeogenesis inhibition (100 uM) Aver.
Give your answer as a number; write no unit.

Fill in the recorded Gluconeogenesis inhibition (100 uM) Aver. for this compound, with HepG2 cells as test system: "COc1cc(N=C(NCCc2cccs2)NC(=N)N)cc(OC)c1.Cl"
152.19

Give the reported Gluconeogenesis inhibition (100 uM) Aver. for "Cl.N=C(N)NC(=Nc1cc(Cl)cc(Cl)c1)NCCc1cccs1" (system: HepG2 cells).
13.04

Form entry - test system: HepG2 cells; read-out: Gluconeogenesis inhibition (100 uM) Aver.; compound: "Cl.N=C(N)NC(=Nc1ccc(Oc2ccccc2)cc1)NCCc1cccs1"
1.54

Notebook entry, HepG2 cells assay: Gluconeogenesis inhibition (100 uM) Aver. of "CN=C(NCCc1sccc1C)NC(=N)N.Cl" = ?
94.51

Hi! What's the reported Gluconeogenesis inhibition (100 uM) Aver. for "CCCCCCc1ccc(N=C(NCCc2cccs2)NC(=N)N)cc1.Cl" on HepG2 cells?
1.26

###

# System: HepG2 cells
# run-description: Measurement of cholesterol synthesis inhibitory ability (cholesterol content in cell lysates, Amplex red)
# Format: cell-based
# condition: 100 uM compound, 24 hours, HepG2; lower value = stronger cholesterol synthesis inhibition
Hi there, I'd appreciate the recorded Cholesterol (100 uM) Aver. for every entry that follows.
Give a plain numeric answer without units written out.

Quick check: Cholesterol (100 uM) Aver. of "Cl.N=C(N)NC(=NCC1CC1)NCCc1cccs1" ?
88.47

Look at this compound and give its reported Cholesterol (100 uM) Aver.. CN=C(NCCc1cccs1)NC(=N)N.Cl [Example 11]
71.14

Bench note: what Cholesterol (100 uM) Aver. did "Cl.N=C(N)NC(=Nc1cccc2ccccc12)NCCc1cccs1" show?
30.90

What value of Cholesterol (100 uM) Aver. has been reported for the following compound? "CCCCCCN=C(NCCc1cccs1)NC(=N)N.Cl"
33.81

Which Cholesterol (100 uM) Aver. value belongs to "CCCCCN=C(NCCc1cccs1)NC(=N)N.Cl" ?
11.05

What value of measured Cholesterol (100 uM) Aver. is listed for "CCCCCCc1ccc(N=C(NCCc2cccs2)NC(=N)N)cc1.Cl" ?
30.10

Fill in: Cholesterol (100 uM) Aver. of "CC(C)(C)CC(C)(C)N=C(NCCc1cccs1)NC(=N)N.Cl" is ___
63.63

Quick check: Cholesterol (100 uM) Aver. of "CCc1ccccc1N=C(NCCc1cccs1)NC(=N)N.Cl" ?
39.25

Form field: reported Cholesterol (100 uM) Aver. of "CC(C)CN=C(NCCc1cccs1)NC(=N)N.Cl"
89.11

Need Cholesterol (100 uM) Aver., item "CN=C(NCCc1sccc1C)NC(=N)N.Cl"
77.03

###

Field: Triglyceride (100 uM) Aver.. Provide a value for each of the compounds that follow.
# Tested on: HepG2 cells
# run-description: Measurement of triglyceride (triglyceride content in cell lysates, Amplex red)
# Assay type: cell-based
# condition: 100 uM compound, 24 hours, HepG2; lower value = stronger triglyceride synthesis inhibition; hydrochloride
Hey, just send me the number, nothing else.

Which Triglyceride (100 uM) Aver. is reported for this compound? COc1ccc(OC)c(N=C(NCCc2cccs2)NC(=N)N)c1.Cl [Example 31]
81.74

Would you kindly share the measured Triglyceride (100 uM) Aver. for CCCCN=C(NCCc1cccs1)NC(=N)N.Cl [Example 25] ?
19.21

Need Triglyceride (100 uM) Aver. of COc1ccc(OC)c(N=C(NCCc2cccs2)NC(=N)N)c1.Cl [Example 16] , thanks.
73.8

Give the measured Triglyceride (100 uM) Aver. of COc1ccc(N=C(NCCc2cccs2)NC(=N)N)cc1.Cl [Example 15] .
76.6

Triglyceride (100 uM) Aver. for CN=C(NCCc1cccs1)NC(=N)N.Cl [Example 5] ?
65.03

###

# Test system: HepG2 cells
# run-description: Measurement of cholesterol synthesis inhibitory ability (cholesterol content in cell lysates, Amplex red)
# Assay type: cell-based
# condition: 100 uM compound, 24 hours, HepG2; lower value = stronger cholesterol synthesis inhibition
Cholesterol (100 uM) Aver. vs 50: at or above is yes, below is no.

Is Cholesterol (100 uM) Aver. for "Cl.N=C(N)NC(=Nc1ccc(Oc2ccccc2)cc1)NCCc1cccs1" at or above 50?
no

Quick check: does "COc1cc(N=C(NCCc2cccs2)NC(=N)N)cc(OC)c1OC.Cl" have Cholesterol (100 uM) Aver. greater than or equal to 50?
yes

Cholesterol (100 uM) Aver. >= 50 for "Cl.N=C(N)NC(=Nc1cccc(C(F)(F)F)c1)NCCc1cccs1" ?
no

Evaluate "Cc1ccc(N=C(NCCc2cccs2)NC(=N)N)cc1.Cl" : Cholesterol (100 uM) Aver. at minimum 50?
yes

Threshold query (Cholesterol (100 uM) Aver. >= 50) on "Cc1cccc(N=C(NCCc2cccs2)NC(=N)N)c1.Cl"
no

Entry "Cl.N=C(N)NC(=Nc1cccc(Br)c1)NCCc1cccs1" : is its Cholesterol (100 uM) Aver. no less than 50?
no

Record "Cl.N=C(N)NC(=NC1CCCC1)NCCc1cccs1" ; criterion: Cholesterol (100 uM) Aver. no lower than 50. Met?
yes

# bool: Cholesterol (100 uM) Aver. of CN=C(NCCc1cccs1)NC(=N)N.Cl [Example 10] >= 50
yes

Exam item: decide whether the reported Cholesterol (100 uM) Aver. for "Cl.N=C(N)NC(=Nc1cc(Cl)cc(Cl)c1)NCCc1cccs1" is at least 50.
yes

Hi team, for "CC(C)(C)c1ccc(N=C(NCCc2cccs2)NC(=N)N)cc1.Cl" , is the recorded Cholesterol (100 uM) Aver. at or above 50?
no

For this compound, is measured Cholesterol (100 uM) Aver. 50 or higher? "CCN=C(NCCc1cccs1)NC(=N)N.Cl"
no

Answer whether Cholesterol (100 uM) Aver. of "CCCN=C(NCCc1cccs1)NC(=N)N.Cl" is greater than or equal to 50.
yes

Confirm if Cholesterol (100 uM) Aver. reported for the compound "COCCN=C(NCCc1cccs1)NC(=N)N.Cl" is 50 or above.
yes

Please tell me: is the compound "COc1cc(N=C(NCCc2cccs2)NC(=N)N)cc(OC)c1.Cl" at or over 50 in terms of Cholesterol (100 uM) Aver.?
no

###

I'd be grateful if you could share measured Glucose absorption (100 uM) Aver. for these entries.
# System: C2C12 cells
# run-description: Measurement of glucose absorption ability (3H-deoxy-glucose uptake with insulin)
# Format: cell-based
# condition: 100 uM compound with 1 μM insulin, 24 hours, differentiated C2C12; higher value = stronger; more than 200% counts as glucose absorption ability; hydrochloride

Can you share its Glucose absorption (100 uM) Aver.? I mean this compound: "COc1ccc(N=C(NCCc2cccs2)NC(=N)N)cc1.Cl"
124.3%

Glucose absorption (100 uM) Aver. lookup needed for COc1ccc(OC)c(N=C(NCCc2cccs2)NC(=N)N)c1.Cl [Example 31] , thanks.
168.20%

Tell me the measured Glucose absorption (100 uM) Aver. of COc1ccc(OC)c(N=C(NCCc2cccs2)NC(=N)N)c1.Cl [Example 16] , please.
147.3%

Quick one: Glucose absorption (100 uM) Aver. for "CCCCN=C(NCCc1cccs1)NC(=N)N.Cl" ?
2.76%

Fill in the blank: the reported Glucose absorption (100 uM) Aver. of "CN=C(NCCc1cccs1)NC(=N)N.Cl" is ____.
350.4%
